The measurements presented in this section are drawn from BindingDB's records for doi:10.1021/acs.jmedchem.1c00779.

- Protocol Notes: Inhibition of P-gp (unknown origin) expressed in human LCC6MDR cells assessed as reversal of paclitaxel resistance after 5 days by MTS/PMS assay
Outcome Measure: EC50 (µM)

Please review the following examples before continuing.
COC(=O)c1cccc(COc2c(-c3ccc(OCCCCc4cn(Cc5ccccc5)nn4)cc3)oc3ccccc3c2=O)c1    0.67
COC(=O)c1cccc(COc2c(-c3ccc(OCCOCCOCCn4cc(CN(C)Cc5ccccc5)nn4)cc3)oc3ccccc3c2=O)c1    0.83
COC(=O)c1cccc(COc2c(-c3ccc(OCCOCCOCCn4cc(CN(CCO)Cc5ccccc5)nn4)cc3)oc3ccccc3c2=O)c1    0.309

P: COC(=O)c1cccc(COc2c(-c3ccc(OCCCCc4cn(CCOCCO)nn4)cc3)oc3ccccc3c2=O)c1
Q: COC(=O)c1cccc(COc2c(-c3ccc(OCCOCCOCCN=[N+]=[N-])cc3)oc3ccccc3c2=O)c1
Among P and Q , which shows a numerically higher EC50 result? # respond with the chosen item's label P
(P: 0.606 µM, Q: 0.298 µM)

###

- Protocol Notes: Inhibition of P-gp (unknown origin) expressed in human LCC6MDR cells assessed as reversal of mitoxantrone resistance after 5 days by MTS/PMS assay
Outcome Measure: EC50 (nM)
Report the figure in nM without appending any unit label.

Field: example entries. Status: answers known.
COC(=O)c1cccc(COc2c(-c3ccc(OCCCCc4cn(Cc5ccccc5)nn4)cc3)oc3ccccc3c2=O)c1    673
COC(=O)c1cccc(COc2c(-c3ccc(OCCOCCOCCn4cc(CN(CCO)Cc5ccccc5)nn4)cc3)oc3ccccc3c2=O)c1    817

For the next question, use this compound.
# return recorded EC50 for input COC(=O)c1cccc(COc2c(-c3ccc(OCCOCCn4cc(CN(C)Cc5ccccc5)nn4)cc3)oc3ccccc3c2=O)c1 644

###

- Protocol Notes: Inhibition of BCRP (unknown origin) expressed in MCF7/MX100 cells assessed as reversal of topotecan resistance after 5 days by MTS/PMS assay
Outcome Measure: EC50 (nM)

Observe how each entry below is paired with its result.
C#CCCCCOc1ccc(-c2oc3ccccc3c(=O)c2OCc2cccc(C(=O)OC)c2)cc1    34
COC(=O)c1cccc(COc2c(-c3ccc(OCCOCCOCCn4cc(CCCCOc5ccc(C=O)cc5)nn4)cc3)oc3ccccc3c2=O)c1    38
COC(=O)c1cccc(COc2c(-c3ccc(OCCCCc4cn(CCOCCO)nn4)cc3)oc3ccccc3c2=O)c1    27
COC(=O)c1cccc(COc2c(-c3ccc(OCCCCc4cn(Cc5ccccc5)nn4)cc3)oc3ccccc3c2=O)c1    6
COC(=O)c1cccc(COc2c(-c3ccc(OCCOCCOCCn4cc(CN(CCO)Cc5ccccc5)nn4)cc3)oc3ccccc3c2=O)c1    1.6
COC(=O)c1cccc(COc2c(-c3ccc(OCCOCCN=[N+]=[N-])cc3)oc3ccccc3c2=O)c1    50
COC(=O)c1cccc(COc2c(-c3ccc(OCCOCCOCCn4cc(CN(C)Cc5ccccc5)nn4)cc3)oc3ccccc3c2=O)c1    28
COC(=O)c1cccc(COc2c(-c3ccc(OCCOCCn4cc(CN(C)Cc5ccccc5)nn4)cc3)oc3ccccc3c2=O)c1    3.5
COC(=O)c1cccc(COc2c(-c3ccc(OCCOCCn4cc(CN(Cc5ccccc5)Cc5ccccc5)nn4)cc3)oc3ccccc3c2=O)c1    30
COC(=O)c1cccc(COc2c(-c3ccc(OCCOCCn4cc(CNc5ccccc5)nn4)cc3)oc3ccccc3c2=O)c1    44

P: COC(=O)c1cccc(COc2c(-c3ccc(OCCOCCOCCN=[N+]=[N-])cc3)oc3ccccc3c2=O)c1
Q: COC(=O)c1cccc(COc2c(-c3ccc(OCCOCCn4cc(CCN5C(=O)c6ccccc6C5=O)nn4)cc3)oc3ccccc3c2=O)c1
Between the entries labeled P and Q , whose measured EC50 is lower? Please respond with the label that marks your chosen entry. P
(P: 17 nM, Q: 97 nM)

###

- Protocol Notes: Inhibition of MRP1 (unknown origin) expressed in human 2008/MRP1 cells assessed as reversal of mitoxantrone resistance after 5 days by MTS/PMS assay
Outcome Measure: pEC50
API: returns pEC50 as number; meaning -log10 of concentration in mol/L.

Reference set, count: 2
COC(=O)c1cccc(COc2c(-c3ccc(OCCOCCOCCn4cc(CN(CCO)Cc5ccccc5)nn4)cc3)oc3ccccc3c2=O)c1    6.23
COC(=O)c1cccc(COc2c(-c3ccc(OCCOCCn4cc(CN(C)Cc5ccccc5)nn4)cc3)oc3ccccc3c2=O)c1    6.17

Return reported pEC50. Input molecule: COC(=O)c1cccc(COc2c(-c3ccc(OCCCCc4cn(Cc5ccccc5)nn4)cc3)oc3ccccc3c2=O)c1 6.05

###

- Protocol Notes: Inhibition of BCRP (unknown origin) expressed in human HEK293/R2 cells assessed as reversal of mitoxantrone resistance after 5 days by MTS/PMS assay
Outcome Measure: pEC50
Give only the number. pEC50 is defined as minus log10 of concentration in molar units.

Below, each entry is followed by its recorded pEC50 result.
COC(=O)c1cccc(COc2c(-c3ccc(OCCOCCn4cc(CN(C)Cc5ccccc5)nn4)cc3)oc3ccccc3c2=O)c1    7.77
COC(=O)c1cccc(COc2c(-c3ccc(OCCOCCOCCn4cc(CN(CCO)Cc5ccccc5)nn4)cc3)oc3ccccc3c2=O)c1    6.78

Read the entry COC(=O)c1cccc(COc2c(-c3ccc(OCCCCc4cn(Cc5ccccc5)nn4)cc3)oc3ccccc3c2=O)c1 and write its reported pEC50. 7.89

###

- Protocol Notes: Inhibition of BCRP (unknown origin) transfected in HEK293/R2 cells assessed as reversal of topotecan resistance after 5 days by MTS/PMS assay
Outcome Measure: EC50 (nM)

[N-]=[N+]=NCCOCCOc1ccc(-c2cc(=O)c3ccccc3o2)cc1    365

A: COC(=O)c1cccc(COc2c(-c3ccc(OCCOCCOCCn4cc(CN(CCO)Cc5ccccc5)nn4)cc3)oc3ccccc3c2=O)c1
B: COC(=O)c1cccc(COc2c(-c3ccc(OCCOCCn4cc(CCN5C(=O)c6ccccc6C5=O)nn4)cc3)oc3ccccc3c2=O)c1
C: [N-]=[N+]=NCCOCCOc1ccc2c(=O)cc(-c3ccccc3)oc2c1
Rank descending by EC50. Rank the items, then write their labels in that order. C, B, A

1: C#CCCCCOc1ccc(-c2oc3ccccc3c(=O)c2OCc2cccc(C(=O)OC)c2)cc1
2: COC(=O)c1cccc(COc2c(-c3ccc(OCCCCc4cn(CCOCCO)nn4)cc3)oc3ccccc3c2=O)c1
Of the two listed items, which has the higher EC50? First: 1 Second: 2 Answer = label. 1
